Molecular target: recombinant protein Wee-1 (Homo sapiens)
Sequence (P30291 whole entry): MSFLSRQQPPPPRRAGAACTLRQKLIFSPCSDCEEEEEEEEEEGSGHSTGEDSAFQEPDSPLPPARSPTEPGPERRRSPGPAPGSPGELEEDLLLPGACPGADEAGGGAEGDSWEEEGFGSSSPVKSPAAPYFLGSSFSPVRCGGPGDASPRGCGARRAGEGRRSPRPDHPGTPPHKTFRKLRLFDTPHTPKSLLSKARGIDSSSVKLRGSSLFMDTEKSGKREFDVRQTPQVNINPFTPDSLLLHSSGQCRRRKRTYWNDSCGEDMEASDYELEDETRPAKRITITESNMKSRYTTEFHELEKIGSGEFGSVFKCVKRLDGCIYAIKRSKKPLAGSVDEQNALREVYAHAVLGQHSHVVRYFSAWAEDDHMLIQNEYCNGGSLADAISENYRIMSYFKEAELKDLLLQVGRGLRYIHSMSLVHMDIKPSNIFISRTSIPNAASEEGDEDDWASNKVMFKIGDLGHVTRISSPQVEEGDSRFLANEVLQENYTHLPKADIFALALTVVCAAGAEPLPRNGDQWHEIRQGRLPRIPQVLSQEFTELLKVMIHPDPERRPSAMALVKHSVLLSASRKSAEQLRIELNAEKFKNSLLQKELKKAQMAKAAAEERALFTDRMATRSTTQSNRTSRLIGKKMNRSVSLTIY
Test: Inhibition of enzymatic activity of recombinant protein Wee-1 (HTRF)
Measured IC50, listed per entry.

As a guide, the following entries are already answered.
State the recorded IC50 for this entry: [2H]C1([2H])C2CCCc3cc(Nc4ncc(C#N)c(Nc5cccc(N=S(C)(C)=O)n5)n4)cc(c32)CN1C (centres unmarked)
≤ 0.01 µM

State the recorded IC50 for this entry: `CN1C[C@H]2CCCc3cc(Nc4ncc(C#N)c(Nc5cccc(N=S(C)(C)=O)n5)n4)cc(c32)C1(C)C`
≤ 0.01 µM

State the recorded IC50 for this entry: CN1Cc2cc(Nc3ncc(C#N)c(Nc4cccc(N=S(C)(C)=O)n4)n3)cc3c2C(C1)OCCC3 (centres unmarked)
≤ 0.01 µM

State the recorded IC50 for this entry: COc1ccc(Nc2nc(Nc3cc4c5c(c3)CN(C)CCC5CCC4)ncc2C#N)nc1N=S(C)(C)=O (centres unmarked)
≤ 0.01 µM

State the recorded IC50 for this entry: CN1Cc2cc(Nc3ncc(P(C)(C)=O)c(Nc4cccc(N=S(C)(C)=O)n4)n3)cc3c2C(CCC3)C1 (centres unmarked)
≤ 0.01 µM

State the recorded IC50 for this entry: CN1Cc2cc(Nc3ncc(C#N)c(Nc4cccc(N=S(C)(C)=O)n4)n3)cc3c2C1CCCC3 (centres unmarked)
≤ 0.01 µM

More entries:
State the recorded IC50 for this entry: CN1Cc2cc(Nc3ncc(C#N)c(Nc4cccc(N=S(C)(C)=O)n4)n3)cc3c2C(CCCS3)C1 (centres unmarked)
≤ 0.01 µM

State the recorded IC50 for this entry: CN1Cc2cc(Nc3ncc(C(F)(F)F)c(Nc4cccc(N=S(C)(C)=O)n4)n3)cc3c2C(CCC3)C1 (centres unmarked)
≤ 0.01 µM

State the recorded IC50 for this entry: CN1Cc2cc(Nc3ncc(C#N)c(Nc4cccc(N=S(C)(C)=O)n4)n3)cc3c2C(C1)NCC3 (centres unmarked)
≤ 0.01 µM

----------
Measured IC50, listed per entry.
Molecular target: recombinant protein Wee-1 (Homo sapiens)
Assay: Inhibition of enzymatic activity of recombinant protein Wee-1 (HTRF)

// map CN1Cc2cc(Nc3ncc(C#N)c(Nc4cccc(N=S(C)(C)=O)n4)n3)cc3c2C(CCOC3)C1 (centres unmarked) to recorded IC50 (system: recombinant protein Wee-1 (Homo sapiens))
≤ 10 nM

// map CN1Cc2cc(Nc3ncc(C#N)c(Nc4cccc(N=S(C)(C)=O)n4)n3)cc3c2C(CNC3)C1 (centres unmarked) to recorded IC50 (system: recombinant protein Wee-1 (Homo sapiens))
≤ 10 nM

// map CC(C)N1Cc2cc(Nc3ncc(C#N)c(Nc4cccc(N=S(C)(C)=O)n4)n3)cc3c2C(CCC3)C1 (centres unmarked) to recorded IC50 (system: recombinant protein Wee-1 (Homo sapiens))
≤ 10 nM

// map CN(C)C1Cc2cc(Nc3ncc(C#N)c(Nc4cccc(N=S(C)(C)=O)n4)n3)cc3c2C(CCC3)C1 (centres unmarked) to recorded IC50 (system: recombinant protein Wee-1 (Homo sapiens))
≤ 10 nM

// map CN1Cc2cc(Nc3ncc(C#N)c(Nc4cccc(N=S(C)(C)=O)n4)n3)cc3c2[C@H](CCC3)C1 (single isomer, unassigned) to recorded IC50 (system: recombinant protein Wee-1 (Homo sapiens))
≤ 10 nM

// map [2H]c1ccc(Nc2nc(Nc3cc4c5c(c3)CN(C)CC5CCC4)ncc2C#N)nc1N=S(C)(C)=O (centres unmarked) to recorded IC50 (system: recombinant protein Wee-1 (Homo sapiens))
≤ 10 nM

// map Cc1c(Nc2ncc(C#N)c(Nc3cccc(N=S(C)(C)=O)n3)n2)cc2c3c1CN(C)CC3CCC2 (centres unmarked) to recorded IC50 (system: recombinant protein Wee-1 (Homo sapiens))
≤ 10 nM

// map CN1Cc2cc(Nc3ncc(C#N)c(Nc4cccc(N=S(C)(C)=O)n4)n3)cc3c2C(COC3)C1 (centres unmarked) to recorded IC50 (system: recombinant protein Wee-1 (Homo sapiens))
≤ 10 nM

// map CN1Cc2cc(Nc3ncc(C#N)c(Nc4cccc(N=S(C)(C)=O)n4)n3)cc3c2C(C)(CCC3)C1 (centres unmarked) to recorded IC50 (system: recombinant protein Wee-1 (Homo sapiens))
≤ 10 nM
